src = paper PMC6651454

protocol_notes: Pharmacokinetics in rat plasma after oral administration of SF-CS and SP-CS extracts (HPLC-MS/MS)
Format: in vivo, Male Sprague-Dawley rats
setup_conditions: rat plasma, oral SP-CS extract (B) 2.2 g kg^-1, n = 10, mean ± SD
assay_readout: T1/2ka (min)

Some solved entries appear below for comparison.
>>> measurement("O=c1c(O[C@@H]2O[C@H](CO)[C@@H](O)[C@H](O)[C@H]2O)c(-c2ccc(O)cc2)oc2cc(O)cc(O)c12")
2.4
>>> measurement("O=C(/C=C/c1ccc(O)c(O)c1)O[C@@H]1C[C@@](O)(C(=O)O)C[C@@H](O)[C@@H]1O")
1.2
>>> measurement("O=c1c(O[C@@H]2O[C@H](CO)[C@H](O)[C@H](O)[C@H]2O)c(-c2ccc(O)c(O)c2)oc2cc(O)cc(O)c12")
0.6

A. O=C(/C=C/c1ccc(O)c(O)c1)O[C@@H]1C[C@](O)(C(=O)O)C[C@@H](O)[C@H]1O
B. O=C(O)/C=C/c1ccc(O)cc1
q: Hi team, can someone confirm which has the larger T1/2ka: A or B ? Thanks. Lab log: write the label of the selected item as the result.
a: B
